Provenance of the data: patent US20120135923A1

molecular target: T1, hMC4-R (human, UniProt P32245 1-332); assay: competition with [125I]-NDP-α-MSH, CHO-K1 membranes
T1 construct: whole, on cells; Assayed as membranes of CHO-K1 cells expressing the receptor; also called hMC-R receptor subtype 4; melanocortin-4 (MC4-R)
T1 sequence (P32245 whole entry): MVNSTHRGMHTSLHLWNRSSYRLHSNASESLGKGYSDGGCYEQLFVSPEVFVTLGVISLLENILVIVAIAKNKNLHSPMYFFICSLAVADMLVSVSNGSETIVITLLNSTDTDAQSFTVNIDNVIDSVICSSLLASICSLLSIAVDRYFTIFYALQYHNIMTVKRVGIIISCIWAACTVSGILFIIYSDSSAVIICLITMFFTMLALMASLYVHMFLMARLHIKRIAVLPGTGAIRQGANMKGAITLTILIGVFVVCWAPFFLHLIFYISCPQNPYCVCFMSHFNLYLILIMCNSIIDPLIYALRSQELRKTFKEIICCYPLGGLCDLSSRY
Bridge positions count the residues as written; N and C are the ends. Square brackets hold non-standard residues; d marks the D form. Bta = N[C@@H](Cc1csc2ccccc12)C(=O)O; Cha = N[C@@H](CC1CCCCC1)C(=O)O; Chg = N[C@H](C(=O)O)C1CCCCC1; Nle = CCCC[C@H](N)C(=O)O; Ava = NCCCCC(=O)O; GABA = NCCCC(=O)O
Lab note: anything with Ki below 20 nM is marked TRUE; values at 20 nM or higher are marked FALSE.

In plain terms, does Ac-C[dA]H[dF]RWAC-NH2 (disulfide 1-8) [Ac-c(Cys-D-Ala-His-D-Phe-Arg-Trp-Ala-Cys)-NH2] come in under 20 nM for Ki?
FALSE

Strictly below 20 nM: is that where Ki of Ac-[Cha]CH[dF]RW[GABA]C-NH2 (disulfide 2-8) [Ac-Cha-c(Cys-His-D-Phe-Arg-Trp-Gaba-Cys)-NH2] sits?
TRUE

Determine whether this binder shows Ki lower than 20 nM (ties excluded): Ac-[Nle]CH[dF]RW[Ava]C-NH2 (disulfide 2-8; SMILES CCCC[C@H](NC(C)=O)C(=O)N[C@H]1CSSC[C@@H](C(N)=O)NC(=O)CCCCNC(=O)[C@H](Cc2c[nH]c3ccccc23)NC(=O)[C@H](CCCNC(=N)N)NC(=O)[C@@H](Cc2ccccc2)NC(=O)[C@H](Cc2c[nH]cn2)NC1=O) [Ac-Nle-c(Cys-His-D-Phe-Arg-Trp-Apn-Cys)-NH2]
TRUE

is_below(Ki, 20 nM) for Ac-[Nle]D[dA]H[dF]R[Bta]AK-NH2 (lactam 2-9) [Ac-Nle-c(Asp-D-Ala-His-D-Phe-Arg-Bal-Ala-Lys)-NH2] ?
FALSE

Is Ki of Ac-[Chg]DH[dF]RW[GABA]K-NH2 (lactam 2-8) [Ac-Chg-c(Asp-His-D-Phe-Arg-Trp-Gaba-Lys)-NH2] strictly below 20 nM?
FALSE
